TESTED_ON: Stat3:Stat3 (Mus musculus, UniProt P42227)
Sequence (P42227 2-770 limits assumed): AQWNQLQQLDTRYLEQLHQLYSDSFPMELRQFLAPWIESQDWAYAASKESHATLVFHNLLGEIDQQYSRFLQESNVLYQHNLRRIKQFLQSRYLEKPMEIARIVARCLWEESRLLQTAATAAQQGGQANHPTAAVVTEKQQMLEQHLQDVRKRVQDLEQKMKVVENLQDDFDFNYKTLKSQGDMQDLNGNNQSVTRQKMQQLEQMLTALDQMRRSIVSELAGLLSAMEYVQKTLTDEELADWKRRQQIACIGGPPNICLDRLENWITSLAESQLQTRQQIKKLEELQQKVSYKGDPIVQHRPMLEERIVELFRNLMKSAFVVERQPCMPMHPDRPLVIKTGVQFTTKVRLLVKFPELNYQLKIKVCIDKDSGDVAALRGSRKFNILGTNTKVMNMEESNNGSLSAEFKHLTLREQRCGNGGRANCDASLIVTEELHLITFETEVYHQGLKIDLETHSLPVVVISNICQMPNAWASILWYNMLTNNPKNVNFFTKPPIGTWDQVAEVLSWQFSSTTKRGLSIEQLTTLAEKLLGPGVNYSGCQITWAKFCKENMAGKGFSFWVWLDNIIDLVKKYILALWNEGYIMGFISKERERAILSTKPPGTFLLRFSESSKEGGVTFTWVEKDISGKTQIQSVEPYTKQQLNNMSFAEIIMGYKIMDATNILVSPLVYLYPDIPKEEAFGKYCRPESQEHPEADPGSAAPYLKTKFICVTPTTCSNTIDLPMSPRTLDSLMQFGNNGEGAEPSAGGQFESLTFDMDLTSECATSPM
TEST: Cell-free EMSA, nuclear extracts pre-incubated with compound, hSIE probe
Assay type: biochemical
REPORTED_CONDITIONS: 5 μM, 30 min pre-incubation, NIH3T3/v-Src nuclear extracts
VALUE_KIND: Stat3:Stat3/DNA-binding activity (complexation), cell-free EMSA

Some compounds with recorded Stat3:Stat3/DNA-binding activity (complexation), cell-free EMSA:
[
  {
    "COMPOUND": "C[C@@H]1C[C@H](O)C2=C(COC(=O)/C=C/c3ccccc3)C(=O)O/C2=C/[C@@]2(C)CC[C@]1(O)O2 [Compound 30]",
    "REPORTED_MEASUREMENT": "diminished"
  },
  {
    "COMPOUND": "C=C(C)C(=O)O[C@H]1C[C@@H](C)[C@]2(O)CC[C@](C)(/C=C3/OC(=O)C(CO)=C31)O2 [Compound 18]",
    "REPORTED_MEASUREMENT": "only weakly inhibited"
  },
  {
    "COMPOUND": "C/C=C(\\C)C(=O)O[C@H]1C[C@@H](C)[C@]2(O)CC[C@](C)(/C=C3/OC(=O)C(COC(C)=O)=C31)O2 [Compound 6]",
    "REPORTED_MEASUREMENT": "diminished"
  },
  {
    "COMPOUND": "C/C=C(\\C)C(=O)OCC1=C2/C(=C\\[C@@]3(C)CC[C@](O)(O3)[C@H](C)C[C@@H]2O)OC1=O [Compound 22]",
    "REPORTED_MEASUREMENT": "diminished"
  },
  {
    "COMPOUND": "CC(C)=CCC/C(C)=C/C(=O)OCC1=C2/C(=C\\[C@@]3(C)CC[C@](O)(O3)[C@H](C)C[C@@H]2O)OC1=O [Compound 31]",
    "REPORTED_MEASUREMENT": "diminished"
  }
]

**Q:** Identify Stat3:Stat3/DNA-binding activity (complexation), cell-free EMSA associated with the compound C/C=C(/C)C(=O)O[C@H]1C[C@@H](C)[C@]2(O)CC[C@](C)(/C=C3/OC(=O)C(CO)=C31)O2 [Compound 19]
**A:** only weakly inhibited

**Q:** Identify Stat3:Stat3/DNA-binding activity (complexation), cell-free EMSA associated with the compound C[C@@H]1C[C@H](O)C2=C(COC(=O)/C=C/c3ccc(F)cc3)C(=O)O/C2=C/[C@@]2(C)CC[C@]1(O)O2 [Compound 34]
**A:** diminished

**Q:** Identify Stat3:Stat3/DNA-binding activity (complexation), cell-free EMSA associated with the compound CC(C)=CC(=O)OCC1=C2/C(=C\[C@@]3(C)CC[C@](O)(O3)[C@H](C)C[C@@H]2O)OC1=O [Compound 32]
**A:** diminished

**Q:** Identify Stat3:Stat3/DNA-binding activity (complexation), cell-free EMSA associated with the compound C/C=C(\C)C(=O)O[C@H]1C[C@@H](C)[C@]2(O)CC[C@](C)(/C=C3/OC(=O)C(CO)=C31)O2 [Compound 8]
**A:** only weakly inhibited

**Q:** Identify Stat3:Stat3/DNA-binding activity (complexation), cell-free EMSA associated with the compound C/C=C(/C)C(=O)O[C@H]1C[C@@H](C)[C@]2(O)CC[C@](C)(/C=C3/OC(=O)C(COC(C)=O)=C31)O2 [Compound 20]
**A:** diminished

**Q:** Identify Stat3:Stat3/DNA-binding activity (complexation), cell-free EMSA associated with the compound C=C(C)C(=O)O[C@H]1C[C@@H](C)[C@]2(O)CC[C@](C)(/C=C3/OC(=O)C(COC(C)=O)=C31)O2 [Compound 7]
**A:** diminished
